system: 786-0; assay: NCI tumour cell line growth inhibition, 48 h
Active and inactive are the calls of the source. Cut-off read from the data, not from the text of the source: active = GI50 up to about 1.1 µM and inactive = higher.
GI50 values for the compounds below.
Property label: GI50

{"columns": ["Compound", "Observed"],
 "data": [
  ["CCOC(=O)/C(C(=O)c1ccccc1)=C1/NCCN1C", "> 100 µM (inactive)"],
  ["CC(=O)Nc1ccc(C(=O)NN2C(=O)CSC2c2ccccc2)cc1 (configuration not stated)", "> 100 µM (inactive)"],
  ["CC1=C(Cl)C[C@@H](/C(C)=C\\Cl)O[C@@]1(O)C(Br)Br", "33.7 µM (inactive)"],
  ["S=C1SCN(Cc2ccco2)CN1c1ccc(Br)cc1", "17.1 µM (inactive)"],
  ["CCc1ccccc1NC(=O)/C=C/c1ccccc1", "> 100 µM (inactive)"],
  ["C[C@H](NC(=O)OC1C2C=CC(O)C1CC2)c1ccccc1 (some centres not stated)", "38.1 µM (inactive)"],
  ["CC1(CCC(=O)OC2CCCCC2)OCCO1", "> 100 µM (inactive)"],
  ["O=C(Nc1ccccc1)c1cccc([N+](=O)[O-])c1", "> 100 µM (inactive)"],
  ["O=C(N/N=C/C=C/c1ccccc1)c1ccccc1Nc1ccccc1C(=O)N/N=C/C=C/c1ccccc1", "> 100 µM (inactive)"],
  ["O=C1c2cc([N+](=O)[O-])cnc2S(=O)(=O)N1c1ccc(Oc2ccccc2)cc1", "> 100 µM (inactive)"],
  ["COc1ccc(/C=C2\\CCC(CN(C)C)C2=O)cc1 (configuration not stated)", "1.65 µM (inactive)"],
  ["CN1CN(c2ccccc2)C2(CCN(C(=O)OC(C)(C)C)CC2)C1=O", "> 100 µM (inactive)"],
  ["CC1(C)CN=C(Nc2cccc(C(F)(F)F)c2)S1", "> 100 µM (inactive)"],
  ["CCN(CC)C(=O)Cc1c(C(=O)N(CC)CC)c(=O)nc2sccn12", "> 100 µM (inactive)"],
  ["O=[N+]([O-])c1cccc(C(O)/C(=N/O)c2nc3ccc(Cl)cc3nc2O)c1 (configuration not stated)", "> 100 µM (inactive)"],
  ["Cc1ccc(-c2nc(C)c(C(=O)Nc3ccc(Cl)cc3)s2)cc1", "15.2 µM (inactive)"],
  ["Nc1nc2c(ncn2CC2CCC(CO)C2)c(=O)[nH]1 (configuration not stated)", "> 100 µM (inactive)"]
]}

====

system: KM-20L2; test: NCI tumour cell line growth inhibition, 48 h
The source made the active and inactive calls. Rule as the data show it: active = GI50 up to about 1.1 µM and inactive = higher.
Outcome codes: active, inactive

{"columns": ["Compound", "Target of assay", "Assigned class"],
 "data": [
  ["C[C@]12CCC3[C@@H](CC[C@@H]4c5nonc5CC[C@]34C)C1CCC2=O (some centres not stated)", "KM-20L2", "inactive"],
  ["O=Cc1c(O)ccc2ccc(O)c(-c3c(O)ccc4ccc(O)cc34)c12", "KM-20L2", "inactive"],
  ["COC(=O)CCC(=O)CC(=O)C(=O)Nc1ccc(F)cc1", "KM-20L2", "inactive"],
  ["Cc1[nH]c(O)nc1C(=O)c1ccc(-n2ccnc2)cc1", "KM-20L2", "inactive"],
  ["O=NN(CCCl)C(=O)N[C@H]1CC[C@@H](CC(=O)O)CC1", "KM-20L2", "inactive"],
  ["C/C(CC(=O)Nc1cc(Cl)c(Cl)cc1Cl)=N\\NS(=O)(=O)c1ccc(C)cc1", "KM-20L2", "inactive"],
  ["COc1ccc(C(=O)O[C@H]2[C@@H]3C=CO[C@@H](OC4OC(CO)C(O)C(O)C4O)[C@@H]3[C@@]3(CO)O[C@@H]23)cc1O (some centres not stated)", "KM-20L2", "inactive"],
  ["C=C1CCC2[C@@H](CCC3[C@]2(C)CCC[C@]3(C)C(=O)OC)C1CC=O (some centres not stated)", "KM-20L2", "inactive"],
  ["O=C(Nc1ccccc1)c1cccc([N+](=O)[O-])c1", "KM-20L2", "inactive"],
  ["CNC(=O)N(C)/N=N/CCCl", "KM-20L2", "inactive"],
  ["Cc1nc2nn(C)cc2c(=O)n1/N=C/c1ccccc1", "KM-20L2", "inactive"],
  ["CC1OC(=O)C(C(C)C)NC(=O)C(C(C)C)OC(=O)C(C(C)C)NC(=O)C(C)OC(=O)C(C(C)C)NC(=O)C(C(C)C)OC(=O)C(C(C)C)NC(=O)C(C)OC(=O)C(C(C)C)NC(=O)C(C(C)C)OC(=O)C(C(C)C)NC1=O (configuration not stated)", "KM-20L2", "active"],
  ["C=C1CC2CC[C@@]34C[C@@H]5O[C@@H]6C(O[C@H]7CC[C@H](CC(=O)OC8[C@@H](C)C9OC%10C[C@]%11(C[C@@H]%12O[C@@]%13(C[C@@H](C)[C@@H]%12O%11)C[C@H](C)[C@@H]%11OC%12CC(C(O)CO)OC%12C[C@@H]%11O%13)OC%10CC9O[C@H]8C[C@H]8O[C@@H](CC[C@@H]1O2)C[C@@H](C)C8=C)O[C@@H]7[C@@H]6O3)C5O4 (some centres not stated)", "KM-20L2", "active"],
  ["N#C/C(=C/c1ccsc1)C(=O)c1ccccc1", "KM-20L2", "inactive"],
  ["COC[C@@H]1Cc2cc(OC)c3c(c2[C@H](c2ccc(OC)c(OC)c2)[C@H]1COC)OCO3", "KM-20L2", "inactive"],
  ["NC1=NN(c2ccccc2)C(=O)C1C(=O)C(=O)Nc1ccc(Cl)c(Cl)c1 (configuration not stated)", "KM-20L2", "inactive"],
  ["C[C@H](NC(=O)OC1C2C=CC(O)C1CC2)c1ccccc1 (some centres not stated)", "KM-20L2", "inactive"]
]}
